- Test system: OCI-Ly3 (ABC-DLBCL, MALT1 dependent)
- measurement_protocol: Cell death assay (CellTiter-Blue resazurin)
- Assay type: cell-based, human
- experimental_context: OCI-Ly3, 7 h
measured_attribute: pEC50
One number for each entry, as −log10 of the molar value.

Q: Recorded pEC50 for COCCOc1nc(-c2ccc(Cl)c(Cl)c2)n(-c2ccc(NC(=O)CCl)cc2)n1 , please?
Ans: 5.60

###

- System: OCI-Ly3 DLBCL cells
- measurement_protocol: Protection from cell death induced by NEMO stapled inhibitor by apoptosis and necroptosis inhibitors
- Assay type: cell-based, human
- experimental_context: OCY-Ly3 pre-treated with inhibitor, then A-UBI-SAHND306-Q313
measured_attribute: protection to cell death induced by NEMO stapled inhibitor, in words

>>> test_value("CC(C)S(=O)(=O)c1ccc2nccc(Nc3ccc4scnc4c3)c2c1")
"significantly rescued"
>>> test_value("COc1nccnc1NS(=O)(=O)c1ccc(NC(=O)/C=C/c2ccc([N+](=O)[O-])s2)cc1 [NSA, necrosulfonamide]")
"significantly rescued"

All values here come from patent US11884708B2.
